Tested on: P. falciparum stage V gametocytes
Set-up: BacTiter-Glo ATP luminescence viability of purified stage V gametocytes in 384-well plates, per cent inhibition versus DMSO
Conditions: 48 h, 5 µM; inhibitor
Hit rate of the full screen: of about 13,000 compounds, about 3,200 (25%) showed an effect of 50% or more. Some of the results follow.
Consider the following compounds and their measured % Inhibition readings.

{"Compound": "Cc1c(C(=O)C2CC2CN2CCC(N3CCCC3)CC2)sc2ccccc12 (centres unmarked)", "System tested": "P. falciparum stage V gametocytes", "% Inhibition (%)": 31.52}
{"Compound": "Cc1ccc(Nc2nc(NN=Cc3ccc(-c4ccc([N+](=O)[O-])cc4)o3)nc(N3CCOCC3)n2)cc1Cl", "System tested": "P. falciparum stage V gametocytes", "% Inhibition (%)": 16.13}
{"Compound": "CC(C)(O)CC(C)(C)c1cc(Cl)ccc1O", "System tested": "P. falciparum stage V gametocytes", "% Inhibition (%)": -16.74}
{"Compound": "OC(CNC1CCCCCCC1)c1ccc(Cl)c(Cl)c1 (centres unmarked)", "System tested": "P. falciparum stage V gametocytes", "% Inhibition (%)": -9.212}
{"Compound": "CCOC(=O)c1ccc(NC(=O)Nc2cccc(-c3cccc(-c4nc5ccccc5[nH]4)c3)c2)cc1", "System tested": "P. falciparum stage V gametocytes", "% Inhibition (%)": 2.081}
{"Compound": "CCOC(=O)c1ccc(NC(=O)Nc2cccc(-c3cccc(-c4nc5c(C)cccc5[nH]4)c3)c2)cc1", "System tested": "P. falciparum stage V gametocytes", "% Inhibition (%)": -4.791}
{"Compound": "OC(CNC1CCCCC1)c1ccc(Cl)c(Cl)c1 (centres unmarked)", "System tested": "P. falciparum stage V gametocytes", "% Inhibition (%)": 75.22}
{"Compound": "Oc1ccc2c(CNCCc3ccccc3)c(O)ccc2c1CNCCc1ccccc1", "System tested": "P. falciparum stage V gametocytes", "% Inhibition (%)": -11.34}
{"Compound": "O=C(Nc1cccc(-c2nc3ccccc3s2)c1)c1ccccc1[N+](=O)[O-]", "System tested": "P. falciparum stage V gametocytes", "% Inhibition (%)": -19.42}
{"Compound": "Cc1cc(CNCC2CCC(CNCCCc3ccccc3)CC2)ccc1O (centres unmarked)", "System tested": "P. falciparum stage V gametocytes", "% Inhibition (%)": 40.71}
{"Compound": "Cc1cccc(-c2nc3[nH]c(=O)cc(NC(=O)C(C)C)n3n2)c1", "System tested": "P. falciparum stage V gametocytes", "% Inhibition (%)": -2.254}
{"Compound": "O=C(/C=C/c1ccccc1F)NC1CCC(CCN2CCc3ccc(-c4cccnc4)cc3CC2)CC1 (centres unmarked)", "System tested": "P. falciparum stage V gametocytes", "% Inhibition (%)": -63.4}
{"Compound": "CCn1c(-c2nonc2N)nc2cnc(Oc3cccc(NC(=O)c4ccc(OCCN5CCCC5)cc4)c3)cc21", "System tested": "P. falciparum stage V gametocytes", "% Inhibition (%)": 8.365}
{"Compound": "CCN(CC)CCNc1ccnc2[nH]c3ccc([N+](=O)[O-])cc3c12", "System tested": "P. falciparum stage V gametocytes", "% Inhibition (%)": 4.282}
